tested_target: PHKG1 (human) (UniProt Q16816)
Sequence (Q16816 whole entry, looked up): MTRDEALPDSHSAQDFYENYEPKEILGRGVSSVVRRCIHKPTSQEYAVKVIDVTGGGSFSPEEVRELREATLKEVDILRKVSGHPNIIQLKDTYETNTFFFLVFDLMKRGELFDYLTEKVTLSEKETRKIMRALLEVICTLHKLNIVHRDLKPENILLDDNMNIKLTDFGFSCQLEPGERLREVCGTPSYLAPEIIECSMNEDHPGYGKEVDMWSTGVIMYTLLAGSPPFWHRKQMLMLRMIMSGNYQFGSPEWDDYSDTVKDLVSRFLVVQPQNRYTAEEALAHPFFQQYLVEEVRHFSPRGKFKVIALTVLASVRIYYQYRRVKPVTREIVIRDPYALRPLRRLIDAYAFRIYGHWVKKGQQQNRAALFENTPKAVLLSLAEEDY
assay_procedure: KINOMEscan competition binding
cond: compound 10.0 µM
measure_name: kinase still bound, per cent of control (%)
Give a bare numeral; the unit % is implied.

See these solved cases before continuing.
> print(dat)
                                   compound  unit.of.measurement  reported
1  CCN(CCO)CCCOc1ccc2c(Nc3cc(CC(=O)Nc4cccc(F)c4)[nH]n3)ncnc2c1                    %        35
2  CC1=C(C(=O)Nc2cc3cn[nH]c3cc2F)C(c2ccc(C(F)(F)F)cc2)CC(=O)N1 (stereo unspecified)                    %       100
3  CCOc1cc(N2CCC(O)CC2)ccc1Nc1ncc2c(n1)N(C)c1ccccc1C(=O)N2C                    %       100
4  Cc1cn(-c2cc(C(=O)Nc3ccc(C)c(NC(=O)c4ccno4)c3)cc(C(F)(F)F)c2)cn1                    %       100
5  N#Cc1cc(-c2ccnc(Nc3ccc(-n4cnc(-c5cccnc5)n4)cc3)n2)cc(N2CCOCC2)c1                    %        65
6  COc1ccc(N(C(=O)Oc2cc(C(=O)Nc3cccc(C(F)(F)F)c3)ccc2C)c2ccnc(Nc3ccc(N4CCN(C)CC4)cc3)n2)c(OC)c1                    %       100

## Task Which kinase still bound, per cent of control reading was recorded for the compound CCN1CCN(Cc2ccc(NC(=O)c3ccc(C)c(/C=C/c4cnc5[nH]ccc5c4OC)c3)cc2C(F)(F)F)CC1 ?
## Result 100

## Task Which kinase still bound, per cent of control reading was recorded for the compound CC(=O)c1c(C)c2cnc(Nc3ccc(N4CCNCC4)cn3)nc2n(C2CCCC2)c1=O ?
## Result 18

## Task Which kinase still bound, per cent of control reading was recorded for the compound COc1cc2c(Nc3ccc(NC(=O)c4ccccc4)cc3)ncnc2cc1OCCCN1CCOCC1 ?
## Result 53

## Task Which kinase still bound, per cent of control reading was recorded for the compound C=CC(=O)Nc1ccc(C(=O)c2sc(Nc3ccc(N4CCN(C)CC4)cc3OC)nc2N)cc1 ?
## Result 7.4

## Task Which kinase still bound, per cent of control reading was recorded for the compound CCc1nc(-c2cccc(C)c2)c(-c2ccnc(NC(=O)c3ccccc3)c2)s1 ?
## Result 100

----------
tested_target: LRRK2 (human)
assay_procedure: KINOMEscan competition binding
cond: compound 10.0 µM
Listed here are compounds together with their documented kinase still bound, per cent of control.
The reply should consist of the numeric value with the unit placed after it.

> print(dat)
                                   compound  tested.target  reported
1  CCN(CCO)CCCOc1ccc2c(Nc3cc(CC(=O)Nc4cccc(F)c4)[nH]n3)ncnc2c1  LRRK2 (human)      100%

## Task Which kinase still bound, per cent of control reading was recorded for the compound C=CC(=O)Nc1ccc(C(=O)c2sc(Nc3ccc(N4CCN(C)CC4)cc3OC)nc2N)cc1 ?
## Result 5.2%

## Task Which kinase still bound, per cent of control reading was recorded for the compound COc1cc2ncnc(Nc3cccc(Cl)c3)c2cc1OC ?
## Result 79%

## Task Which kinase still bound, per cent of control reading was recorded for the compound O=c1[nH]c2ccccc2n1C1CCN(Cc2ccc(-c3nc4cc5[nH]cnc5cc4nc3-c3ccccc3)cc2)CC1 ?
## Result 100%

## Task Which kinase still bound, per cent of control reading was recorded for the compound N#C/C(=C1/Nc2ccccc2S1)c1ccnc(NCCc2cccnc2)n1 ?
## Result 100%

## Task Which kinase still bound, per cent of control reading was recorded for the compound CCc1nc(-c2cccc(C)c2)c(-c2ccnc(NC(=O)c3ccccc3)c2)s1 ?
## Result 100%

Origin of values: the kinase profiling compilation of Christmann-Franck et al. (2016)
